Overview of reported HDAC6 selectivity (fold) across a group of compounds:
assayTarget: human recombinant HDAC6 (Homo sapiens, UniProt Q9UBN7)
Construct: purchased Calbiochem 382180
Sequence (Q9UBN7 whole entry): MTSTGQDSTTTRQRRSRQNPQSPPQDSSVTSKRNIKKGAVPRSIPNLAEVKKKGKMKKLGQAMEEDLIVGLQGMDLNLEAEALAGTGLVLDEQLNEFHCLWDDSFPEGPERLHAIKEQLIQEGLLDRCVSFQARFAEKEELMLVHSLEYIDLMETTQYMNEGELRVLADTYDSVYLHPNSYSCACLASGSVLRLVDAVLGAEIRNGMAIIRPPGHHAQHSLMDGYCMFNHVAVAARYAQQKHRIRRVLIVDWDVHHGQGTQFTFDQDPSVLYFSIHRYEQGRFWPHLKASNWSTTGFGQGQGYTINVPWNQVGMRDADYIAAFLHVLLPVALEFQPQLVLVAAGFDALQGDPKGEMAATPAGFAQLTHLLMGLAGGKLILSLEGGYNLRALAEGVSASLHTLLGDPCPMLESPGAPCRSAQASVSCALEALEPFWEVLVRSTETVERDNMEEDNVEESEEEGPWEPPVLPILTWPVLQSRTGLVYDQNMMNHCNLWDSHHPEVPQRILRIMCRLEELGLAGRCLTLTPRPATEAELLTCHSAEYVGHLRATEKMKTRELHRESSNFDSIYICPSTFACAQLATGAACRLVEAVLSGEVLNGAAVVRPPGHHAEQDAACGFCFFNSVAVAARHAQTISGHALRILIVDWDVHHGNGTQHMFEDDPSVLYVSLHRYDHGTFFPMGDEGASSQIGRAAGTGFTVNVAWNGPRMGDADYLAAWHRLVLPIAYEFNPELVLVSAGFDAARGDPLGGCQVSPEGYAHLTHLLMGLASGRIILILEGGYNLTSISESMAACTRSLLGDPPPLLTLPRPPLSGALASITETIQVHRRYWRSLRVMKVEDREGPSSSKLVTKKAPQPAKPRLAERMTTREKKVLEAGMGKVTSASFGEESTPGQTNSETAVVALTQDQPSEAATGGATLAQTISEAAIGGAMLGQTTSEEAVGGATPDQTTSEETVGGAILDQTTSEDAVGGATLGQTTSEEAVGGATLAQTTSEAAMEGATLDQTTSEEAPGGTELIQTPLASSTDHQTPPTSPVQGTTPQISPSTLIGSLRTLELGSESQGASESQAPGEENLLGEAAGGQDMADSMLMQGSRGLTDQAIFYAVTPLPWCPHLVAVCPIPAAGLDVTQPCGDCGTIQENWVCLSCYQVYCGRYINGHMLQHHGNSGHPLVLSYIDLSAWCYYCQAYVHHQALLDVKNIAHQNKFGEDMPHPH
testDetails: HDAC6 enzyme activity inhibition assay (HDAC Fluorimetric Drug Discovery Kit)
Assay type: biochemical
measurementSetup: HDAC6 over HDAC1
Give the value in fold but do not write fold after it.

- structureString: "Cc1ccc(N(Cc2ccc(-c3nnc(C(F)F)o3)cc2)C(=O)N2CCS(=O)(=O)CC2)cc1"
  reported: 115
- structureString: "O=C(N1CCOCC1)N(Cc1ncc(-c2nnc(C(F)F)o2)cn1)c1ccccc1"
  reported: 208

Returns the measured HDAC6 selectivity (fold) for the input compound. Input: CN(Cc1ccc(-c2nnc(C(F)(F)F)o2)cc1)C(=O)N1CCOCC1
12

And CCN1CCN(C(=O)N(Cc2ccc(-c3nnc(C(F)(F)F)o3)cc2F)c2cccc(F)c2F)CC1 ?
153

* * *

Overview of reported IC50 across a group of molecules:
assayTarget: human recombinant HDAC6 (Homo sapiens, UniProt Q9UBN7)
Construct: purchased Calbiochem 382180
testDetails: HDAC6 enzyme activity inhibition assay (HDAC Fluorimetric Drug Discovery Kit)
Type: biochemical
measurementSetup: human recombinant HDAC6, same protocol as HDAC1; read-out: HDAC6
Give the value in nM but do not write nM after it.

The cases that follow already have their IC50 on record.
- structureString: "O=C(NCCN1CCC(N2CCOCC2)CC1)N(Cc1ccc(-c2nnc(C(F)F)o2)cc1F)c1ccccc1"
  IC50 [nM]: 101
- structureString: "O=C(N1CCS(=O)(=O)CC1)N(Cc1ccc(-c2nnc(C(F)F)o2)cc1F)c1ccc(-c2ccncc2)cc1"
  IC50 [nM]: 63
- structureString: "O=C(N1CCN(C2COC2)CC1)N(Cc1ccc(-c2nnc(C(F)F)o2)cc1F)c1cccc(F)c1"
  IC50 [nM]: 65
- structureString: "Cc1ccc(N(Cc2ccc(-c3nnc(C(F)(F)F)o3)cc2)C(=O)N2CCOCC2)c(F)c1"
  IC50 [nM]: 299
- structureString: "O=C(N1CCOCC1)N(Cc1ccc(-c2nnc(C(F)F)o2)cc1F)c1ccc(F)cc1F"
  IC50 [nM]: 38

Here is another molecule to look at.
Hello, I am looking for reported IC50 with human recombinant HDAC6 (Homo sapiens, UniProt Q9UBN7) for O=C(N1CCOCC1)N(Cc1c(F)cc(-c2nnc(C(F)F)o2)cc1F)c1ccccc1 . Could you help?
48

* * *

Overview of reported log10 of IC50 across a group of compounds:
assayTarget: human recombinant HDAC1 (Homo sapiens)
Construct: purchased Enzo Life Science BML-SE456
Sequence (Q13547 whole entry): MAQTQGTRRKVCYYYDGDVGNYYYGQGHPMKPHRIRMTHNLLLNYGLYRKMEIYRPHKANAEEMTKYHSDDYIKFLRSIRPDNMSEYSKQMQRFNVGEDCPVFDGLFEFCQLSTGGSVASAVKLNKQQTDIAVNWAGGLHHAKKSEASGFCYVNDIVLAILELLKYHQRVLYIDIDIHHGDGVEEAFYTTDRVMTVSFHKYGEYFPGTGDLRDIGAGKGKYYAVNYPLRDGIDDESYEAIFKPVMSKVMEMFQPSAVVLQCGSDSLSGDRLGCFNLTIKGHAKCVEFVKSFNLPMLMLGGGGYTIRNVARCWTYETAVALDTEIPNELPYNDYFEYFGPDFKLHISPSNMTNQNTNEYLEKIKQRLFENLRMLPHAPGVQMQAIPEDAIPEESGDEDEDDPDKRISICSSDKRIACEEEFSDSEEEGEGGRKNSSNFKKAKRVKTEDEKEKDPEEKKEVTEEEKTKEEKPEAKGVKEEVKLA
testDetails: HDAC1 enzyme activity inhibition assay (HDAC Fluorimetric Drug Discovery Kit)
Assay type: biochemical
measurementSetup: human recombinant HDAC1, Fluor de Lys substrate 10 μM, 30° C. 60 minutes
Base-10 log of IC50, unit µM.

The cases that follow already have their log10 of IC50 on record.
- structureString: "O=C(N1CCC(F)(F)C1)N(Cc1ccc(-c2nnc(C(F)(F)F)o2)cc1F)c1ccc(F)c(Cl)c1"
  log10 of IC50: 1.02
- structureString: "O=C(N1CCS(=O)(=O)CC1)N(Cc1ccc(-c2nnc(C(F)(F)F)o2)cc1F)c1ccc2c(c1)CCO2"
  log10 of IC50: 0.68

Returns the measured log10 of IC50 for the input compound. Input: O=C(N1CCN(CCO)CC1)N(Cc1ccc(-c2nnc(C(F)F)o2)cc1F)c1ccc(F)c(Cl)c1
1.37

And CN(C)[C@@H]1CCN(C(=O)N(Cc2ccc(-c3nnc(C(F)F)o3)cc2F)c2ccc3cnn(C)c3c2)C1 ?
1.25
